- ASSAY_METHOD_TEXT: Biodistribution of 67Ga complexes in mice
- Assay type: in vivo, balb/c mice
- ASSAY_CONTEXT: 30 min

# SMILES_RECORD, biodistribution liver / % ID
data = [
    ("Cc1cc(C)c(O)c(NC(=O)CN(CCN(CC(=O)O)CC(=O)Nc2cc(C)cc(C)c2O)CC(=O)O)c1", 3.15),
    ("O=C(O)CN(CCN(CC(=O)O)CC(=O)Nc1ccc(Cl)cc1O)CC(=O)Nc1ccc(Cl)cc1O", 3.7),
    ("O=C(O)CN(CCN(CC(=O)O)CC(=O)Nc1ccccc1O)CC(=O)Nc1ccccc1O", 10.11),
    ("CC(C)(C)c1ccc(O)c(NC(=O)CN(CCN(CC(=O)O)CC(=O)Nc2cc(C(C)(C)C)ccc2O)CC(=O)O)c1", 1.06),
]

* * *

- ASSAY_METHOD_TEXT: Biodistribution of compound No. 6 in mice (Table 6)
- Type: in vivo, Balb/c mice
- ASSAY_CONTEXT: mouse, muscle, 5 min, read-out: biodistribution muscle
READOUT_LABEL: tissue uptake at 5 min (%ID/g)

# MOLECULE, RECORDED_NUMBER
rows = [
    ("Cc1cc(C)c(O)c(NC(=O)CN(CCN(CC(=O)O)CC(=O)Nc2cc(C)cc(C)c2O)CC(=O)O)c1 [Compound 6]", 1.26),
]

* * *

- ASSAY_METHOD_TEXT: Biodistribution of 99mTc complexes in mice
- Format: in vivo, Balb/c mice
- ASSAY_CONTEXT: 10 min
- Protocol: A series of derivatives incorporating carboxyl and phenolate donor groups (1-6) were synthesised by literature method and their radiolabelling characteristic and biological behaviour evaluated. […] A typical method of radiolabelling of the chelator was achieved by dissolving the chelator in a basic solution of saline. […] The efficacy of labelling was determined by ITLC-SG. […]
Catalogue of compounds with associated biodistribution skin

# SMILES_RECORD, biodistribution skin (% Injected dose)
rows = [
    ("O=C(O)CN(CCN(CC(=O)O)CC(=O)Nc1ccccc1O)CC(=O)Nc1ccccc1O", 15.68),
    ("O=C(O)CN(CCN(CC(=O)O)CC(=O)Nc1ccc(Cl)cc1O)CC(=O)Nc1ccc(Cl)cc1O", 11.02),
    ("Nc1ccc(O)c(NC(=O)CN(CCN(CC(=O)O)CC(=O)Nc2cc(N)ccc2O)CC(=O)O)c1", 23.93),
    ("Cc1cc(C)c(O)c(NC(=O)CN(CCN(CC(=O)O)CC(=O)Nc2cc(C)cc(C)c2O)CC(=O)O)c1", 5.17),
    ("CC(C)(C)c1ccc(O)c(NC(=O)CN(CCN(CC(=O)O)CC(=O)Nc2cc(C(C)(C)C)ccc2O)CC(=O)O)c1", 7.3),
]

* * *

- ASSAY_METHOD_TEXT: Biodistribution of 99mTc complexes in mice
- Type: in vivo, Balb/c mice
- ASSAY_CONTEXT: 1 min
- Procedure: A series of derivatives incorporating carboxyl and phenolate donor groups (1-6) were synthesised by literature method and their radiolabelling characteristic and biological behaviour evaluated. […] A typical method of radiolabelling of the chelator was achieved by dissolving the chelator in a basic solution of saline. […] The efficacy of labelling was determined by ITLC-SG. […]
Label condition met when biodistribution liver is strictly below 20 % Injected dose; otherwise label condition not met.

# SMILES_RECORD, CLASS_NAME
measured = [
    ("O=C(O)CN(CCN(CC(=O)O)CC(=O)Nc1ccccc1O)CC(=O)Nc1ccccc1O", "condition met"),
    ("Cc1cc(C)c(O)c(NC(=O)CN(CCN(CC(=O)O)CC(=O)Nc2cc(C)cc(C)c2O)CC(=O)O)c1", "condition not met"),
    ("CC(C)(C)c1ccc(O)c(NC(=O)CN(CCN(CC(=O)O)CC(=O)Nc2cc(C(C)(C)C)ccc2O)CC(=O)O)c1", "condition not met"),
    ("O=C(O)CN(CCN(CC(=O)O)CC(=O)Nc1ccc(Cl)cc1O)CC(=O)Nc1ccc(Cl)cc1O", "condition met"),
    ("Nc1ccc(O)c(NC(=O)CN(CCN(CC(=O)O)CC(=O)Nc2cc(N)ccc2O)CC(=O)O)c1", "condition met"),
]

* * *

- ASSAY_METHOD_TEXT: Biodistribution of 99mTc complexes in rats
- Format: in vivo, Australian Albino Wistar Rats
- ASSAY_CONTEXT: rat, lungs, rats, 3 min, read-out: biodistribution lungs

# SMILES_RECORD, UNIT_ABBREVIATION, tissue uptake at 0.05 h
records = [
    ("CC(C)(C)c1ccc(O)c(NC(=O)CN(CCN(CC(=O)O)CC(=O)Nc2cc(C(C)(C)C)ccc2O)CC(=O)O)c1", "%ID/g", 1),
    ("O=C(O)CN(CCN(CC(=O)O)CC(=O)Nc1cc([N+](=O)[O-])ccc1O)CC(=O)Nc1cc([N+](=O)[O-])ccc1O", "%ID/g", 0.87),
    ("O=C(O)CN(CCN(CC(=O)O)CC(=O)Nc1ccc(Cl)cc1O)CC(=O)Nc1ccc(Cl)cc1O", "%ID/g", 0.79),
    ("O=C(O)CN(CCN(CC(=O)O)CC(=O)Nc1ccccc1O)CC(=O)Nc1ccccc1O", "%ID/g", 0.8),
    ("Nc1ccc(O)c(NC(=O)CN(CCN(CC(=O)O)CC(=O)Nc2cc(N)ccc2O)CC(=O)O)c1", "%ID/g", 1.31),
]

* * *

In this section, each of the molecules is paired with its reported biodistribution stomach.
- ASSAY_METHOD_TEXT: Biodistribution of 99mTc complexes in mice
- Type: in vivo, Balb/c mice
- ASSAY_CONTEXT: 10 min
READOUT_LABEL: biodistribution stomach (% Injected dose)

# SMILES_RECORD, UNIT_ABBREVIATION, RECORDED_NUMBER
records = [
    ("CC(C)(C)c1ccc(O)c(NC(=O)CN(CCN(CC(=O)O)CC(=O)Nc2cc(C(C)(C)C)ccc2O)CC(=O)O)c1", "% Injected dose", 0.7),
    ("O=C(O)CN(CCN(CC(=O)O)CC(=O)Nc1ccccc1O)CC(=O)Nc1ccccc1O", "% Injected dose", 1.16),
    ("O=C(O)CN(CCN(CC(=O)O)CC(=O)Nc1ccc(Cl)cc1O)CC(=O)Nc1ccc(Cl)cc1O", "% Injected dose", 1.3),
    ("Cc1cc(C)c(O)c(NC(=O)CN(CCN(CC(=O)O)CC(=O)Nc2cc(C)cc(C)c2O)CC(=O)O)c1", "% Injected dose", 3.42),
]

* * *

- ASSAY_METHOD_TEXT: Biodistribution of 99mTc complexes in rats
- Type: in vivo, Australian Albino Wistar Rats
- ASSAY_CONTEXT: rat, heart, rats, 5 min, read-out: biodistribution heart
READOUT_LABEL: tissue uptake at 5 min (%ID/g)

# COMPOUND, RECORDED_NUMBER
rows = [
    ("CC(C)(C)c1ccc(O)c(NC(=O)CN(CCN(CC(=O)O)CC(=O)Nc2cc(C(C)(C)C)ccc2O)CC(=O)O)c1 [Compound 4]", 0.48),
    ("Nc1ccc(O)c(NC(=O)CN(CCN(CC(=O)O)CC(=O)Nc2cc(N)ccc2O)CC(=O)O)c1 [Compound 5]", 1.15),
    ("O=C(O)CN(CCN(CC(=O)O)CC(=O)Nc1ccc(Cl)cc1O)CC(=O)Nc1ccc(Cl)cc1O [Compound 2]", 0.36),
    ("O=C(O)CN(CCN(CC(=O)O)CC(=O)Nc1cc([N+](=O)[O-])ccc1O)CC(=O)Nc1cc([N+](=O)[O-])ccc1O [Compound 3]", 0.45),
    ("O=C(O)CN(CCN(CC(=O)O)CC(=O)Nc1ccccc1O)CC(=O)Nc1ccccc1O [Compound 1]", 0.33),
]

* * *

# reported tissue uptake at 0.05 h; entries follow
- ASSAY_METHOD_TEXT: Biodistribution of 99mTc complexes in rats
- Format: in vivo, Australian Albino Wistar Rats
- ASSAY_CONTEXT: rat, pancreas, rats, 3 min, read-out: biodistribution pancreas
READOUT_LABEL: tissue uptake at 0.05 h (%ID/g)

# MOLECULE, RECORDED_NUMBER
rows = [
    ("O=C(O)CN(CCN(CC(=O)O)CC(=O)Nc1cc([N+](=O)[O-])ccc1O)CC(=O)Nc1cc([N+](=O)[O-])ccc1O [Compound 3]", 0.38),
    ("O=C(O)CN(CCN(CC(=O)O)CC(=O)Nc1ccc(Cl)cc1O)CC(=O)Nc1ccc(Cl)cc1O [Compound 2]", 0.44),
    ("CC(C)(C)c1ccc(O)c(NC(=O)CN(CCN(CC(=O)O)CC(=O)Nc2cc(C(C)(C)C)ccc2O)CC(=O)O)c1 [Compound 4]", 0.55),
    ("O=C(O)CN(CCN(CC(=O)O)CC(=O)Nc1ccccc1O)CC(=O)Nc1ccccc1O [Compound 1]", 0.44),
    ("Nc1ccc(O)c(NC(=O)CN(CCN(CC(=O)O)CC(=O)Nc2cc(N)ccc2O)CC(=O)O)c1 [Compound 5]", 0.55),
]
